Data origin, for the record: PubChem BioAssay (NCI)

System: CCRF-CEM leukemia
Experiment: NCI-60 one-dose screen, 48 h (100 = growth as untreated, 0 = no growth, -100 = all killed)
Conditions: 10 µM unless noted
The panel holds about 83,000 compounds, 20% with a hit somewhere; the sample as a whole holds those more often.

compound	growth / %
COc1ccc(/C(C)=C(\c2ccc(Cl)cc2)c2ccc(OCCCN(C)C)cc2)cc1	53.1
N#C/C(=C/C=C/c1ccccc1)S(=O)c1ccccc1 (stereo not given)	-5.68
COc1cccc(/C=C2\CCc3ccccc3C2=O)c1	37.7
COc1ccc(-c2csc(NC(=O)CSc3nc(C)cc(=O)[nH]3)n2)cc1	106
Cc1cc(=O)oc2cc(Oc3nc(-c4ccccc4)cn4c(-c5ccccc5)cnc34)ccc12	77.6
O=C(Nc1cccc2c1C(=O)c1cccc(NC(=O)c3ccc(C(=O)Nc4cccc5c4C(=O)c4cccc(NC(=O)c6ccccc6)c4C5=O)cc3)c1C2=O)c1ccccc1	115
Cc1nn(-c2ccccc2)c(Oc2ccccc2)c1/C=N/NC(=O)Cn1c(=O)sc2ccccc21	49.9
Cc1ccc(Nc2cc(N)nc(N)n2)cc1	107
O=C1/C(=C/c2ccc(Br)cc2)COc2ccc(O)cc21	1.32
COc1cccc(C2C(C#N)=C(N)Oc3c2ccc2ccccc32)c1 (stereo not given)	8.64
Cc1ccc(-c2nc(C#N)c(S(=O)(=O)n3nc(C)cc3N)o2)cc1	-18.8
Cc1c(Cl)cccc1NC(=O)c1sc2nc3c(cc2c1N)CCCC3	20.4
O=C1/C(=C/c2cccc(Br)c2)COc2ccc(O)c(O)c21	4.21
CCCCCCCCCCCCCC[n+]1ccc2c(C)c3c(c(C)c2c1)c1cc(O)ccc1n3CC	-16
FC(F)(F)c1cc(N2CCCCC2)nc(NCCCNc2ccnc3cc(Cl)ccc23)n1	54
COc1ccc2c(c1)c(-c1nc(-c3cn(C)c4ccncc34)cs1)cn2C	-27.9
COc1cc(-c2c(-c3ccccc3)c[nH]c2C(=O)NCCCO)c(OC)c2c1OCO2	88.8
COc1cc(CNC(=O)CCCC/C=C/C(C)C)ccc1OCc1cn(-c2cccc([N+](=O)[O-])c2)nn1	90.2
O=C1CCc2c(sc3[nH]c(=S)n(-c4cc(C(F)(F)F)cc(C(F)(F)F)c4)c(=O)c23)C1	1.71
N#CC1=C(N)Oc2c(ccc3ccccc23)C1c1cc2ccccc2n2nnnc12 (stereo not given)	-5.43
CC(C)(C)n1cc(-c2ccnc(NCCNS(=O)(=O)c3ccc(Br)cc3)c2)c(-c2cccc(O)c2)n1	27.7
CCCCCCCCCCCCCCCCCCOc1ccccc1CC(=O)OCC[N+]1(C)CCCCC1	6.32
O=C1NCCN1/N=C/c1c(Cl)n(Cc2ccc(Cl)cc2)c2ccccc12	89
Oc1cccc(-c2nc(-c3n[nH]c(=S)n3-c3ccccc3)cc3c2[nH]c2ccccc23)c1	21.3
Cc1oc2ccc(O)c(CN3CCCCCC3)c2c1C(=O)Nc1ccc(C(F)(F)F)cc1	65.2
N#Cc1c(-c2ccc(Cl)cc2)nc(NN=Cc2cccc(Cl)c2)nc1N1CCOCC1	72.5
C=C(C)[C@@H]1CCC[C@]2(C(=O)OC)CC[C@]3(C)[C@@H](CC[C@@H]4[C@@]5(C)CCCNC(C)(C)[C@@H]5CC[C@]43C)[C@@H]12	84
CC(C)n1nc(-c2ccc3oc(N)nc3c2)c2c(N)ncnc21	11.7
C=C(C)[C@@H]1CC[C@]2(COCCCNCCCN)CC[C@]3(C)[C@H](CC[C@@H]4[C@@]5(C)CC[C@H](OCCCN)C(C)(C)[C@@H]5CC[C@]43C)[C@@H]12	-37.8
Clc1ccc(C2=Nn3c(nnc3-c3cc(Cl)cc(Cl)c3Cl)SC2)cc1	36.1
